// reported apparent KD of MS2 coat protein for each item listed
# Tested on: MS2 coat protein
# Test Method Notes: apparent KD of MS2 coat protein; designed switch direction (-1 OFF switch, 1 ON switch): 1; higher = weaker reporter binding
# Test Conditions: input ligand: microRNA oligo, concentration not stated
Please reply with the bare figure in nM and do not write the unit itself.

Recorded apparent KD of MS2 coat protein, per entry:
[
  {
    "Residue Codes": "AGCUAUUAAUCAGGAUAUGGUCACAUGAGGAUCACCCAUGUGUAGAUGAUAAAAUGUGGUCAACACUAGAAGGGAUUGCUAACA [SameState NG2 #61] (Eterna round: R96, puzzle: Same State NG 2)",
    "apparent KD of MS2 coat protein [nM]": 25.1
  },
  {
    "Residue Codes": "GCCAUCGCAUGAGGAUAUGGCACCGAAACGGUGCCAGAAGGCAUGUCGAAAGACAUGAGGAUCACCCAUGUAGUAUAGAUGGCA [Mat - Same State NG 1 - JL mod - D93] (Eterna round: R96, puzzle: Same State NG 1)",
    "apparent KD of MS2 coat protein [nM]": 228
  },
  {
    "Residue Codes": "GCGGACCUGACAUGAGGAUCACCCAUGUUGCGGAGACGCAAUGAGGAUAUCGAUGGGUUUCCCGUCGAGAAGGCAUAAAUCCGC [JL SSNG3 3.93 mod 3] (Eterna round: R96, puzzle: Same State NG 3)",
    "apparent KD of MS2 coat protein [nM]": 16
  }
]

Turning now to a further sequence:
The reported apparent KD of MS2 coat protein value, MS2 coat protein, for UGCCUGUCCGAAGGAUAUCUCAGCGAUCUUUUGGGAGAAGGUCGGAUGCAACAUGAGGAUCACCCAUGUGUAUAUAUCGCUGAC [Eternabot solution 48] (Eterna round: R96, puzzle: Same State NG 1) reads 13.9

###

# Test system: MS2 coat protein
# Test Method Notes: apparent KD of MS2 coat protein; higher = weaker reporter binding
# Test Conditions: Eterna round: R107; input ligand: arginine 13.2 mM
Decide using apparent KD of MS2 coat protein: a value greater than or equal to 20 nM is label 1, a smaller one is label 0.

The following sequences have reported results that may help.
[
  {
    "Residue Codes": "GCACGACAUGAGGAUCACCCAUGUGCAGAUACCAGUAAUGUAUAUUACCCUUGGCAGCUGAGUAGGUCUGGAGGGCUAUAGGUAA [Same State Theophylline A GF11]",
    "Group": "label 0"
  },
  {
    "Residue Codes": "GGCACCAGGAGAAGGAGCGUGAAGACAUGAGGAUCACCCAUGUAGAGGCCCGUACAGGGUUCGCAGGUAGGUCGCUCCUGGUGCC [#1 Same State - Arginine B Attempt #12 (HarryS)]",
    "Group": "label 0"
  },
  {
    "Residue Codes": "UAUCCACAUGAGGAUCACCCAUGUUAGGAAGGAGCGGUGAAUGAACCAGGUAGGUCGCCUAGCUGAGGACUGUCGAUGGAUUCGU [Exclusion - Arginine A (Freestyle 17)]",
    "Group": "label 0"
  }
]

-- ask Could you tell me if the measured apparent KD of MS2 coat protein of AUACCUAAUGUUACAUUUUCCUUUUCAGAUACCAGACUUUACGUUGUCCCUUGGCAGCUGUAUCACAUGAGGAUCACCCAUGUUG [JR_SSTheophyA_Sub009] reaches 20 nM or more?
-- reply label 0

-- ask API: above_or_equal(metric=apparent KD of MS2 coat protein, cutoff=20 nM) for item AGUAGCUGCCGAAGGAGCGCCGUGUUCCUACAUGAGGAUCACCCAUGUAGCGUUGGGUUACGGCAGGUAGGUCGCGGCAGAUAGG [#18 Same State - Arginine B]
-- reply label 1

-- ask API: above_or_equal(metric=apparent KD of MS2 coat protein, cutoff=20 nM) for item GAGCUGAUGUAGGCCGGAUAUCCGGGAGAUACCAGUACAGAAAUGUACCCUUGGCAGCUCUUUCUUACAUGAGGAUCACCCAUGU [Ex Theophylline A 27]
-- reply label 0
